Test system: secreted APP
assayInfo: ELISA for secreted APP in SHSY5Y cells
Assay type: cell-based, human
appliedConditions: Dose 0.08 uM, 16 hours
Recorded APP Secretion by SH-SY-5Y Cells by entry
experimentalReadout: APP Secretion by SH-SY-5Y Cells (% vehicle control)

• CNC(C)c1cccc(OC)c1 (stereo not shown) [MES 9271] = 96.6
• C[C@@]12CCN(Cc3ccccc3)C1Nc1ccc(O)cc12 (stereo partly shown) [MES 9279] = 97.8
• COc1ccc2c(c1)c(CCN(C)C)cn2Cc1ccccc1 [MES 9191] = 100.8
• CN1CC[C@@]2(C)c3cc(O)ccc3N(C)C2NC1=O (single isomer, unassigned; (-)) [MES 9205] = 115.1
• C[C@]12CCN(Cc3ccccc3)C1N(Cc1ccccc1)c1ccc(O)cc12 (stereo partly shown) [MES 9238] = 117.6
• Cc1cc2c(cc1O)[C@]1(C)CCN(C)C1N2C (stereo partly shown) [MES 9267] = 97.8
• CC(Br)C(=O)N(C)c1ccc(O)cc1 (stereo not shown) [MES 9291, Propionanilde] = 98.2
